B1: library; numbered along this chain (parent)
chain: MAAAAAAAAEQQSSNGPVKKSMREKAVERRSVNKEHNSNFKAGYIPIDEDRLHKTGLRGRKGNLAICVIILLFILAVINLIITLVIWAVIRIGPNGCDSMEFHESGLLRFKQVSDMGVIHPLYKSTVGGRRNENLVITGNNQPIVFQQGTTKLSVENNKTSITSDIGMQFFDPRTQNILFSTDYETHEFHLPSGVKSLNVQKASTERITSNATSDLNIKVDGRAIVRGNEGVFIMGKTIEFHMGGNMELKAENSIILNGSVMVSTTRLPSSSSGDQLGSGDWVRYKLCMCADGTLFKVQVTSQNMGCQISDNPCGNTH

# Variants of: B1
# Assay details: SGCB cell-surface expression functional score (HA stain, bin4 vs bin1, normalised to synonymous) (log10 ratio); higher = more cell-surface SGCB (functional)
Recorded SGCB cell-surface expression functional score (log10) determines the label; the label ranges are Low: < -0.8; Medium: ≥ -0.8 and < 0.04; High: ≥ 0.04

Req: In plain terms, what class is `P269D` ?
Resp: Medium

Req: What do you have for `F40D` ?
Resp: High

Req: What do you have for `T182V` ?
Resp: Low

Req: What do you have for `T175Q` ?
Resp: High

Req: What do you have for `Q169H` ?
Resp: Low

Req: What do you have for `K202E` ?
Resp: Low

Req: What do you have for `D311F` ?
Resp: High

Req: What do you have for `I144G` ?
Resp: Low

Req: What do you have for `I255Q` ?
Resp: Medium

Req: What do you have for `L122A` ?
Resp: Medium

These data points were gathered from the supplement of paper PMC10266784.
